conditions: in THF, 288.15 K
measured endpoint: solubility (mole fraction)
Enter the number alone.

QUERY: What measured solubility (mole fraction) goes with `Cc1[nH]nc2cc([N+](=O)[O-])ccc12` ?
RESULT: 0.0671

----------
conditions: in THF, 313.15 K
measured endpoint: solubility (mole fraction)
Enter the number alone.

QUERY: What measured solubility (mole fraction) goes with `Cc1[nH]nc2cc([N+](=O)[O-])ccc12` ?
RESULT: 0.097

----------
conditions: in THF, 323.15 K
measured endpoint: solubility (mole fraction)
Enter the number alone.

QUERY: What measured solubility (mole fraction) goes with `Cc1[nH]nc2cc([N+](=O)[O-])ccc12` ?
RESULT: 0.113

----------
conditions: in acetone, 323.15 K
measured endpoint: solubility (mole fraction)
Enter the number alone.

QUERY: What measured solubility (mole fraction) goes with `Cc1[nH]nc2cc([N+](=O)[O-])ccc12` ?
RESULT: 0.0738

----------
conditions: in ethyl acetate, 293.15 K
measured endpoint: solubility (mole fraction)

QUERY: What measured solubility (mole fraction) goes with `Cc1[nH]nc2cc([N+](=O)[O-])ccc12` ?
RESULT: 0.0232

----------
conditions: in THF, 328.15 K
measured endpoint: solubility (mole fraction)
Enter the number alone.

QUERY: What measured solubility (mole fraction) goes with `Cc1[nH]nc2cc([N+](=O)[O-])ccc12` ?
RESULT: 0.123

----------
conditions: in acetonitrile, 313.15 K
measured endpoint: solubility (mole fraction)
Enter the number alone.

QUERY: What measured solubility (mole fraction) goes with `Cc1[nH]nc2cc([N+](=O)[O-])ccc12` ?
RESULT: 0.0206

----------
conditions: in water, 283.15 K
measured endpoint: solubility (mole fraction)
Enter the number alone.

QUERY: What measured solubility (mole fraction) goes with `Cc1[nH]nc2cc([N+](=O)[O-])ccc12` ?
RESULT: 2.7e-05

----------
details: in water, 293.15 K
measured endpoint: solubility (mole fraction)
Enter the number alone.

QUERY: What measured solubility (mole fraction) goes with `Cc1[nH]nc2cc([N+](=O)[O-])ccc12` ?
RESULT: 4.71e-05

----------
conditions: in acetonitrile, 328.15 K
measured endpoint: solubility (mole fraction)
Enter the number alone.

QUERY: What measured solubility (mole fraction) goes with `Cc1[nH]nc2cc([N+](=O)[O-])ccc12` ?
RESULT: 0.0254

----------
details: in n-propanol, 308.15 K
measured endpoint: solubility (mole fraction)
Enter the number alone.

QUERY: What measured solubility (mole fraction) goes with `Cc1[nH]nc2cc([N+](=O)[O-])ccc12` ?
RESULT: 0.012

----------
conditions: in acetonitrile, 298.15 K
measured endpoint: solubility (mole fraction)

QUERY: What measured solubility (mole fraction) goes with `Cc1[nH]nc2cc([N+](=O)[O-])ccc12` ?
RESULT: 0.0156

----------
conditions: in THF, 298.15 K
measured endpoint: solubility (mole fraction)
Enter the number alone.

QUERY: What measured solubility (mole fraction) goes with `Cc1[nH]nc2cc([N+](=O)[O-])ccc12` ?
RESULT: 0.0781

----------
details: in ethyl acetate, 283.15 K
measured endpoint: solubility (mole fraction)

QUERY: What measured solubility (mole fraction) goes with `Cc1[nH]nc2cc([N+](=O)[O-])ccc12` ?
RESULT: 0.0183

----------
conditions: in n-propanol, 288.15 K
measured endpoint: solubility (mole fraction)
Enter the number alone.

QUERY: What measured solubility (mole fraction) goes with `Cc1[nH]nc2cc([N+](=O)[O-])ccc12` ?
RESULT: 0.0073
